Values of Ki reported for cloned human H3 receptor, stably expressed in SK-N-MC cells (Homo sapiens, UniProt Q9Y5N1) appear below.
Give bare numbers, in nM.

c1cnn(-c2ccc([C@H]3CN4CCC[C@H]4c4cc(OCCCN5CCOCC5)ccc43)cc2)c1 (relative stereo)    5
c1cn(-c2ccc([C@@H]3CN4CCC[C@H]4c4cc(OCCCN5CCOCC5)ccc43)cc2)cn1 (relative stereo) [Example 48A]    6
Cc1ccc([C@@H]2CN3CCC[C@H]3c3cccc(OCCCN4CCCCC4)c32)cc1 (relative stereo)    85

Switching to the query record.
In: For the molecule Clc1ccc([C@H]2CN3CCC[C@H]3c3cccc(OCCCN4CCCCC4)c32)cc1Cl (relative stereo) , what Ki is on record?
Out: 76

* * *

Quick record: Ki, cloned human H3 receptor, stably expressed in SK-N-MC cells (Homo sapiens, UniProt Q9Y5N1).
Answers are plain numbers, in nM.

Hey, quick one: what's Ki for each of these?
1. CSc1ccc([C@H]2CN3CCC[C@H]3c3ccc(C#CCCN4CCCCC4)cc32)cc1 (relative stereo) [Example 97B]
2. c1cnc([C@H]2CN3CCC[C@H]3c3cc(OCCCN4CCOCC4)ccc32)cn1 (relative stereo) [Example 50B]
3. c1cn(-c2ccc([C@H]3CN4CCC[C@H]4c4cc(OCCCN5CCOCC5)ccc43)cc2)cn1 (relative stereo) [Example 48B]
4. C#Cc1ccc([C@H]2CN3CCC[C@H]3c3cc(OCCCN4CCCCC4)ccc32)cc1 (relative stereo)
5. N#Cc1ccc([C@@H]2CN3CCC[C@H]3c3cc(OCCCN4CCCCC4)ccc32)cc1 (relative stereo) [Example 41A]
6. Fc1ccc([C@H]2CN3CCC[C@H]3c3cc(OCCCN4CCCCC4)ccc32)cc1 (relative stereo) [Example 14B]

Out:
12
181
5
4
1
1

In: Given the compound CSc1ccc([C@@H]2CN3CCC[C@H]3c3cc(C#CCCN4CCCCC4)ccc32)cc1 (relative stereo) [Example 98A] , what is its reported Ki?
Out: 4

* * *

Please provide measured Ki for the entries that follow.
# test.system: Rat SERT (Rattus norvegicus, UniProt P31652)
# Construct: A rat brain without cerebellum (Zivic Laboratories, Inc.—Pittsburgh, Pa.) was homogenized; tissue Zivic Laboratories, Inc; host or cells: rat brain without cerebellum, membranes
# Sequence (P31652 whole entry): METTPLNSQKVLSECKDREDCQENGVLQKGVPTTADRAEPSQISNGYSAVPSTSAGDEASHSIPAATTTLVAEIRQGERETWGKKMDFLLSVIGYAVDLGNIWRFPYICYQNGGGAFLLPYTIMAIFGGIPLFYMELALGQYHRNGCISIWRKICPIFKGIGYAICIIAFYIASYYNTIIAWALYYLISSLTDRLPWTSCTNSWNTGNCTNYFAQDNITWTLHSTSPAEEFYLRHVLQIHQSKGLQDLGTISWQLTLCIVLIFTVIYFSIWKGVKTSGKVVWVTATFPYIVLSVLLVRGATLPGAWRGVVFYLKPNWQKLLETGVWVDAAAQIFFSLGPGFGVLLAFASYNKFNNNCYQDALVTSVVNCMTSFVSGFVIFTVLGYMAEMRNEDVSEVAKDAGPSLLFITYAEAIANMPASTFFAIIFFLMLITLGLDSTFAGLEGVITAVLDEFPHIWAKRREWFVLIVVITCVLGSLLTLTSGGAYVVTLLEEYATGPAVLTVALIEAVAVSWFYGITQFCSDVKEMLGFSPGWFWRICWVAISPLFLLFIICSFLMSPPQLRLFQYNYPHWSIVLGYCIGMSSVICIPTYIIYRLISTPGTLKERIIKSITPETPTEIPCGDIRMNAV
# assay.method.text: Rat brain SERT binding ([3H]-Citalopram displacement)
# stated.conditions: rat brain membranes, 0.6 nM [3H]-Citalopram; read-out: Rat SERT Ki
One number for each entry, in nM.

Field: example entries. Status: answers known.
COc1ccc([C@@H]2CN3CCC[C@H]3c3cc(OCCCN4CCOCC4)ccc32)cc1    11
c1ccc([C@H]2CN3CCC[C@H]3c3cc(OCCCN4CCCCC4)ccc32)cc1 (relative stereo)    2
c1ccc([C@@H]2CN3CCC[C@H]3c3cc(OCCCN4CCCCC4)ccc32)cc1 (relative stereo)    138
FC(F)(F)c1ccc([C@@H]2CN3CCC[C@@H]3c3cc(OCCCN4CCCCC4)ccc32)cc1 (relative stereo)    25

Give me Ki for each of these compounds, listed below.
1. c1ccc([C@@H]2CN3CCC[C@H]3c3cccc(OCCCN4CCCCC4)c32)cc1 (relative stereo)
2. CSc1ccc([C@@H]2CN3CCC[C@@H]3c3cc(OCCCN4CCOCC4)ccc32)cc1
3. COc1ccc([C@@H]2CN3CCC[C@@H]3c3cc(OCCCN4CCOCC4)ccc32)cc1

Out:
[4000, 3, 2.2]

* * *

# test.system: human SERT (HEK293 membranes) (Homo sapiens)
endpoint.label: pKi
Give bare numbers, as −log10 of the molar value.

Take a look at these entries with their results.
CSc1ccc([C@@H]2CN3CCC[C@H]3c3cc(C#CCCN4CCCCC4)ccc32)cc1 (relative stereo) [Example 98A]    8.70
FC(F)(F)Oc1ccc([C@H]2CN3CCC[C@H]3c3cc(OCCCN4CCCCC4)ccc32)cc1 (relative stereo) [Example 17]    8.15
Oc1cccc([C@H]2CN3CCC[C@H]3c3cc(OCCCN4CCCCC4)ccc32)c1 (relative stereo) [Example 15]    8.52
COc1cccc([C@H]2CN3CCC[C@H]3c3cc(OCCCN4CCCCC4)ccc32)c1 (relative stereo) [Example 10A]    8.70
Brc1ccc([C@H]2CN3CCC[C@H]3c3cc(OCCCN4CCCCC4)ccc32)cc1 (relative stereo) [Example 40]    7.74
COc1ccc([C@H]2CN3CCC[C@H]3c3cc(OCCCN4CCCCC4)ccc32)cc1OC (relative stereo) [Example 18]    7.89

As a next step, examine the compound that follows.
In: Report pKi for Fc1ccc([C@@H]2CN3CCC[C@H]3c3cc(OCCCN4CCCCC4)ccc32)cc1 (relative stereo) [Example 14A] please.
Out: 8.52

* * *

# test.system: human SERT (HEK293 membranes) (Homo sapiens, UniProt P31645)
# Sequence (P31645 whole entry): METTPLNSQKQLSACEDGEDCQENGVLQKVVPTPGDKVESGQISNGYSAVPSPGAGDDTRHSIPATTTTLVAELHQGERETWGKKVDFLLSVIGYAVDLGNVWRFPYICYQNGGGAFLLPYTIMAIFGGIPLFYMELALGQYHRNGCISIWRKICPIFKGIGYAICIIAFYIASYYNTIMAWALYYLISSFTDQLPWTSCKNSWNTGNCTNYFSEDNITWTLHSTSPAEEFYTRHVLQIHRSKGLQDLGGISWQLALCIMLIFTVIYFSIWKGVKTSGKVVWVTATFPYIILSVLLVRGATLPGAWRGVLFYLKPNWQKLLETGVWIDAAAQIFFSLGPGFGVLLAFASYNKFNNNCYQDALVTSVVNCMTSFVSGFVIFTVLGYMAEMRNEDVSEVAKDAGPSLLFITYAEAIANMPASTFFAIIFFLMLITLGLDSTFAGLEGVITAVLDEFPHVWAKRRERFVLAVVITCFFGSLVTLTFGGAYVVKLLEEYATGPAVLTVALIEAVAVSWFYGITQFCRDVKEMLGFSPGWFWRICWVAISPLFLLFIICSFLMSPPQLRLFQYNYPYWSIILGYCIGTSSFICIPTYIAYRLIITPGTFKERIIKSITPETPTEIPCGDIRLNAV
pKi: −log10 of the molar value.
Label 1 for high-side pKi (at or above 8) and -1 for low-side pKi (below it).

Answered cases to consult:
c1ccc([C@H]2CN3CCC[C@H]3c3cc(OCCCN4CCCCC4)ccc32)cc1 (relative stereo)    1
COc1ccccc1[C@H]1CN2CCC[C@H]2c2cc(OCCCN3CCCCC3)ccc21 (relative stereo) [Example 13A]    -1

Shifting focus to the compound that follows.
In: Given the entry Clc1cccc([C@@H]2CN3CCC[C@H]3c3cc(OCCCN4CCCCC4)ccc32)c1 (relative stereo) [Example 11A] , answer whether its pKi meets or surpasses 8.
Out: 1

* * *

Reported values: pKi for cloned human H3 receptor, stably expressed in SK-N-MC cells (Homo sapiens, UniProt Q9Y5N1), one per item.
Give bare numbers, as −log10 of the molar value.

Please review the following examples before continuing.
c1cc([C@H]2CN3CCC[C@H]3c3cc(OCCCN4CCCCC4)ccc32)ccn1 (relative stereo) [Example 27B]    9.52
FC(F)(F)Oc1ccc([C@H]2CN3CCC[C@H]3c3cc(OCCCN4CCCCC4)ccc32)cc1 (relative stereo) [Example 17]    8.40
Fc1ccc([C@@H]2CN3CCC[C@H]3c3cc(OCCCN4CCCCC4)ccc32)cc1 (relative stereo) [Example 14A]    8.70
c1cc([C@@H]2CN3CCC[C@H]3c3cc(OCCCN4CCCCC4)ccc32)ccn1 (relative stereo) [Example 27A]    9.00
c1ccc([C@H]2CN3CCC[C@H]3c3ccc(OCCCN4CCCCC4)cc32)cc1 (relative stereo) [Example 45]    7.80

Hi, could you look up pKi for each item in my list?
1. Ic1ccc([C@H]2CN3CCC[C@H]3c3cc(OCCCN4CCCCC4)ccc32)cc1 (relative stereo) [Example 35B]
2. c1ccc([C@@H]2CN3CCC[C@H]3c3ccc(OCCCN4CCCCC4)cc32)cc1 (relative stereo) [Example 44]

Out:
1. 8.70
2. 9.00

* * *

# test.system: Rat SERT (Rattus norvegicus, UniProt P31652)
# Construct: A rat brain without cerebellum (Zivic Laboratories, Inc.—Pittsburgh, Pa.) was homogenized; tissue Zivic Laboratories, Inc; host or cells: rat brain without cerebellum, membranes
# assay.method.text: Rat brain SERT binding ([3H]-Citalopram displacement)
Please provide measured pKi for the entries that follow.
Numbers only, as −log10 of the molar value.

C[Si](C)(C)C#Cc1ccc([C@H]2CN3CCC[C@H]3c3cc(OCCCN4CCCCC4)ccc32)cc1 (relative stereo)    7.82

Now examine the next entry.
In: What value of pKi has been reported for the following compound? C[Si](C)(C)C#Cc1cccc([C@H]2CN3CCC[C@H]3c3cc(OCCCN4CCCCC4)ccc32)c1 (relative stereo)
Out: 7.48

* * *

# test.system: Rat SERT (Rattus norvegicus)
# Construct: A rat brain without cerebellum (Zivic Laboratories, Inc.—Pittsburgh, Pa.) was homogenized; tissue Zivic Laboratories, Inc; host or cells: rat brain without cerebellum, membranes
# assay.method.text: Rat brain SERT binding ([3H]-Citalopram displacement)
# stated.conditions: rat brain membranes, 0.6 nM [3H]-Citalopram; read-out: Rat SERT Ki
Output Condition met for records whose Ki is lower than 500 nM, Condition not met for records at or above 500 nM.

Please review the entries below; each comes with its answer.
FC(F)(F)c1ccc([C@@H]2CN3CCC[C@H]3c3cccc(OCCCN4CCCCC4)c32)cc1 (relative stereo)    Condition not met
O=[N+]([O-])c1ccc([C@@H]2CN3CCC[C@H]3c3cc(OCCCN4CCCCC4)ccc32)cc1 (relative stereo)    Condition not met
FC(F)(F)Oc1ccc([C@H]2CN3CCC[C@H]3c3cc(OCCCN4CCCCC4)ccc32)cc1 (relative stereo)    Condition met

As a next step, examine the compound that follows.
In: Item N#Cc1ccc([C@@H]2CN3CCC[C@H]3c3cc(OCCCN4CCCCC4)ccc32)cc1 (relative stereo) [Example 41A] : Ki beneath 500 nM, strictly?
Out: Condition met

The reported numbers originate from patent US8273762B2.
